# EC50 per record follows
- target under test: T1, human CX3CR1 (human, UniProt P49238 1-355)
- T1 construct: Expressed on Ba/F3 cells (made by the inventors from P49238-1); also called hCX3CR1
- T1 sequence: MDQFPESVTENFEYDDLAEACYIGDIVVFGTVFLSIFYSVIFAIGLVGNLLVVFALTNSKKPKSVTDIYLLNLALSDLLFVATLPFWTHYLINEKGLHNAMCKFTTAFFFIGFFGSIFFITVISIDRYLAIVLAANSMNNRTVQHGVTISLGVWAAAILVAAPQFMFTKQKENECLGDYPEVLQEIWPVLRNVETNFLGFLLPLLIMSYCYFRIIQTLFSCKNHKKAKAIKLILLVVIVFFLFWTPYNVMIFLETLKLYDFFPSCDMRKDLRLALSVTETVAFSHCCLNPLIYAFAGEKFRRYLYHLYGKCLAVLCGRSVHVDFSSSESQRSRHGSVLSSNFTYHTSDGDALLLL
- protocol: binding to hCX3CR1-expressing Eurofins cells
quantity kind: EC50 (nM)

binder	quantity kind	reported
h1F8-2-3 (antibody, V domains shown, Humanized antibody; also called humanized 1F8 antibody h1F8-2-3) VH: QVQLVQSGAEVKKPGSSVKVSCKASGFTFTNYWMQWIRQAPGQGLEWIGAIYPGSGESRYTRKFKGRATLTADKSTSTAYMELSSLRSEDTAVYYCARWAGYSRNAAYWGQGTLVTVSS VL: DIVMTQTPLSLPVTPGEPASISCRSRQSIVHSSGNTYLEWYLQKPGQSPQLLIYKVSNRFSGVPDRFSGSGSGTDFTLKISRVEAEDVGVYYCFQGSHIPPTFGGGTKVEIK	EC50	4.02
h1F8-2-2 antibody (antibody, IgG1, V domains shown, Humanized antibody; also called humanized 1F8 antibody (h1F8-2-2)) VH: QVQLVQSGAEVKKPGSSVKVSCKASGFTFTNYWMQWIRQAPGQGLEWIGAIYPGSGESRYTRKFKGKATITADKSTSTAYMELSSLRSEDTAVYYCARWAGYSRNAAYWGQGTLVTVSS VL: DIVMTQTPLSLPVTPGEPASISCRSRQSIVHSSGNTYLEWYLQKPGQSPQLLIYKVSNRFSGVPDRFSGSGSGTDFTLKISRVEAEDVGVYYCFQGSHIPPTFGGGTKVEIK	EC50	3.1
h1F8-2-4 (antibody, V domains shown, Humanized antibody; also called humanized 1F8 antibody h1F8-2-4) VH: QVQLVQSGAEVKKPGSSVKVSCKASGFTFTNYWMQWIRQAPGQGLEWIGAIYPGSGESRYTRKFKGRVTITADKSTSTAYMELSSLRSEDTAVYYCARWAGYSRNAAYWGQGTLVTVSS VL: DIVMTQTPLSLPVTPGEPASISCRSRQSIVHSSGNTYLEWYLQKPGQSPQLLIYKVSNRFSGVPDRFSGSGSGTDFTLKISRVEAEDVGVYYCFQGSHIPPTFGGGTKVEIK	EC50	4.42
h1F8-2-1 (antibody, V domains shown, Humanized antibody; also called humanized 1F8 antibody h1F8-2-1) VH: QVQLVQSGAEVKKPGSSVKVSCKASGFTFTNYWMQWIRQAPGQGLEWIGAIYPGSGESRYTRKFKGRATITADKSTSTAYMELSSLRSEDTAVYYCARWAGYSRNAAYWGQGTLVTVSS VL: DIVMTQTPLSLPVTPGEPASISCRSRQSIVHSSGNTYLEWYLQKPGQSPQLLIYKVSNRFSGVPDRFSGSGSGTDFTLKISRVEAEDVGVYYCFQGSHIPPTFGGGTKVEIK	EC50	4.42
